Molecular target: SARS-CoV-2 NSP3 SUD-M domain (SARS-CoV-2, UniProt P0DTD1 1356-1493)
Assay: fluorescence polarisation
Conditions: both partners purified
Reported metric: pIC50
Reminder that pIC50 is minus the log10 of a molar concentration.

Please look at this binder and report its pIC50: QFTEEDLHFVLYGVTPY [PRDM14 wt peptide 196-211]
3.40
